# TARGET OR TEST SYSTEM: Myelin-associated glycoprotein (Homo sapiens, UniProt P20916)
# Sequence (P20916 whole entry): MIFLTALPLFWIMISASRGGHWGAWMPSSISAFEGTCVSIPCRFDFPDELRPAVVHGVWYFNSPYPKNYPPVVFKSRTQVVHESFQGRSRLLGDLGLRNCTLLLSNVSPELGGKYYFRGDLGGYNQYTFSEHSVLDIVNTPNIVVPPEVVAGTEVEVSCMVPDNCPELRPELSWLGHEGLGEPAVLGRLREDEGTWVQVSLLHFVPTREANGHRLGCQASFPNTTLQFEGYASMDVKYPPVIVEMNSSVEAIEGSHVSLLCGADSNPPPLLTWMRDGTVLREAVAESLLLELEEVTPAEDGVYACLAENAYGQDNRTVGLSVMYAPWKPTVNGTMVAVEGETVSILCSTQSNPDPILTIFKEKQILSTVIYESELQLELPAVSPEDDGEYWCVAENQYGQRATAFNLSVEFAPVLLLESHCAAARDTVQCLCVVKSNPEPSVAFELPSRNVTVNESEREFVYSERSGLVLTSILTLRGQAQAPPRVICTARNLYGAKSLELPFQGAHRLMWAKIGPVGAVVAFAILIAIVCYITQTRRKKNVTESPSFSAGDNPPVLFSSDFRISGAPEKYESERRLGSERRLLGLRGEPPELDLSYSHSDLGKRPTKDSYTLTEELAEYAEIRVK
# EXPERIMENT: Inhibition of human MAG after 30 min by competitive ELISA
Could you please report measured pIC50 for the items listed next?
Numbers only, as −log10 of the molar value.

STRUCTURE: O=C(CO)N[C@H]1[C@H]([C@H](O)[C@H](O)CNCc2ccc(-c3ccc(O)cc3)cc2)O[C@@](OCc2ccc(-c3ccccc3)cc2)(C(=O)O)C[C@@H]1O
MEASURED VALUE: 4.78

STRUCTURE: O=C(Cc1ccc(-c2ccc(O)cc2)cc1)NC[C@@H](O)[C@@H](O)[C@@H]1O[C@@](OCc2ccc(-c3ccccc3)cc2)(C(=O)O)C[C@H](O)[C@H]1NC(=O)CO
MEASURED VALUE: 3.79

STRUCTURE: O=C(Cc1ccc(-c2ccc(O)cc2)cc1)NC[C@@H](O)[C@@H](O)[C@@H]1O[C@@](OCc2ccccc2)(C(=O)O)C[C@H](O)[C@H]1NC(=O)CO
MEASURED VALUE: 3.77

Now for the compound whose pIC50 we want.
Lab note: "COc1ccc(O[C@@H]2O[C@H](CO[C@]3(C(=O)O)C[C@H](O)[C@@H](NC(=O)CO)[C@H]([C@H](O)[C@H](O)CNC(=O)Cc4ccc(-c5ccc(O)cc5)cc4)O3)[C@H](O)[C@H](O)[C@H]2O)cc1" gave pIC50 of 3.87

----------
# TARGET OR TEST SYSTEM: B-cell receptor CD22 (Homo sapiens) (UniProt P20273)
# EXPERIMENT: Ratio of IC50 for 9-(4'-hydroxy-4-biphenyl)acetamido-9-deoxy-Neu5Gca2-6GalOMP to IC50 for compound at human CD22
hey, just use MET if measured Ratio IC50 is less than 1, otherwise NOT MET

Please review the following examples before continuing.
STRUCTURE: O=C(CO)N[C@H]1[C@H]([C@H](O)[C@H](O)CNCc2ccc(-c3ccc(O)cc3)cc2)O[C@@](OCc2ccccc2)(C(=O)O)C[C@@H]1O
CLASS ASSIGNMENT: MET
--
STRUCTURE: O=C(CO)N[C@H]1[C@H]([C@H](O)[C@H](O)CNCc2ccc(-c3ccc(O)cc3)cc2)O[C@@](OCc2ccc(-c3ccccc3)cc2)(C(=O)O)C[C@@H]1O
CLASS ASSIGNMENT: MET
--
STRUCTURE: O=C(Cc1ccc(-c2ccc(O)cc2)cc1)NC[C@@H](O)[C@@H](O)[C@@H]1O[C@@](OCc2ccc(-c3ccccc3)cc2)(C(=O)O)C[C@H](O)[C@H]1NC(=O)CO
CLASS ASSIGNMENT: NOT MET

API: the following record is the query input.
Item "O=C(Cc1ccc(-c2ccc(O)cc2)cc1)NC[C@@H](O)[C@@H](O)[C@@H]1O[C@@](OCc2ccccc2)(C(=O)O)C[C@H](O)[C@H]1NC(=O)CO" : Ratio IC50 beneath 1, strictly? NOT MET

----------
# TARGET OR TEST SYSTEM: B-cell receptor CD22 (Mus musculus, UniProt P35329)
# Sequence (P35329 whole entry): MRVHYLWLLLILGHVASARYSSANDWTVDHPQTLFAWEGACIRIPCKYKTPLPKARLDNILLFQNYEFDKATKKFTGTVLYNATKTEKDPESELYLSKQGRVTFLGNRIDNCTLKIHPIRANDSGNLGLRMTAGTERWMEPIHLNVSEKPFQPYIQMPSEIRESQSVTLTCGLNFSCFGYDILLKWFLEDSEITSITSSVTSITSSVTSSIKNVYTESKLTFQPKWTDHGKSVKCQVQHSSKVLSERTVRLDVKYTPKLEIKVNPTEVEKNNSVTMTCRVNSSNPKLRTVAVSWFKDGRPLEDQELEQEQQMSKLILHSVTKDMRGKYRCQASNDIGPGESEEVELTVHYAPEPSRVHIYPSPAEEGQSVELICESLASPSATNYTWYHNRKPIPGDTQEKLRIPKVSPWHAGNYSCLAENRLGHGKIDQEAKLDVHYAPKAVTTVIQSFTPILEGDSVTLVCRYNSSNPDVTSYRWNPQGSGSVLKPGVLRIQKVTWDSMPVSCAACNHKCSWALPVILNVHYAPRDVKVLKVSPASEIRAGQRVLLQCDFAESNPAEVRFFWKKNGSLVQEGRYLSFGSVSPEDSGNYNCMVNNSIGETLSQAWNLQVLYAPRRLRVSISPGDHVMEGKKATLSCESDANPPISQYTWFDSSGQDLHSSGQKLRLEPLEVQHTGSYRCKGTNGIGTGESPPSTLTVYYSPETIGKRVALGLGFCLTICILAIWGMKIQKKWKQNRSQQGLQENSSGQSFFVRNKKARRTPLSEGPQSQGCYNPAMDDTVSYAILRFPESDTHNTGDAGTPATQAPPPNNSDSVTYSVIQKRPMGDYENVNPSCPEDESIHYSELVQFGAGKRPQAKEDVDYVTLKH
# EXPERIMENT: Antagonist activity at mouse CD22 after 1 hr by competitive ELISA
READOUT: pIC50
One number for each entry, as −log10 of the molar value.

Study these solved cases before continuing.
STRUCTURE: O=C(CO)N[C@H]1[C@H]([C@H](O)[C@H](O)CNCc2ccc(-c3ccc(O)cc3)cc2)O[C@@](OCc2ccccc2)(C(=O)O)C[C@@H]1O
TARGET OR TEST SYSTEM: B-cell receptor CD22 (Mus musculus, UniProt P35329)
pIC50: 5.30
--
STRUCTURE: O=C(CO)N[C@H]1[C@H]([C@H](O)[C@H](O)CNCc2ccc(-c3ccc(O)cc3)cc2)O[C@@](OCc2ccc(-c3ccccc3)cc2)(C(=O)O)C[C@@H]1O
TARGET OR TEST SYSTEM: B-cell receptor CD22 (Mus musculus, UniProt P35329)
pIC50: 4.63
--
STRUCTURE: COc1ccc(O[C@@H]2O[C@H](CO[C@]3(C(=O)O)C[C@H](O)[C@@H](NC(=O)CO)[C@H]([C@H](O)[C@H](O)CNCc4ccc(-c5ccc(O)cc5)cc4)O3)[C@H](O)[C@H](O)[C@H]2O)cc1
TARGET OR TEST SYSTEM: B-cell receptor CD22 (Mus musculus, UniProt P35329)
pIC50: 5.19
--
STRUCTURE: O=C(Cc1ccc(-c2ccc(F)cc2)cc1)NC[C@@H](O)[C@@H](O)[C@@H]1O[C@@](OCc2ccccc2)(C(=O)O)C[C@H](O)[C@H]1NC(=O)CO
TARGET OR TEST SYSTEM: B-cell receptor CD22 (Mus musculus, UniProt P35329)
pIC50: 5.30
--
STRUCTURE: COc1ccc(O[C@@H]2O[C@H](CO[C@]3(C(=O)O)C[C@H](O)[C@@H](NC(=O)CO)[C@H]([C@H](O)[C@H](O)CNC(=O)Cc4ccc(-c5ccc(O)cc5)cc4)O3)[C@H](O)[C@H](O)[C@H]2O)cc1
TARGET OR TEST SYSTEM: B-cell receptor CD22 (Mus musculus, UniProt P35329)
pIC50: 5.42

For every record below, what is its pIC50?
1. O=C(Cc1ccc(-c2ccc(O)cc2)cc1)NC[C@@H](O)[C@@H](O)[C@@H]1O[C@@](OCc2ccccc2)(C(=O)O)C[C@H](O)[C@H]1NC(=O)CO
2. O=C(Cc1ccc(-c2ccc(O)cc2)cc1)NC[C@@H](O)[C@@H](O)[C@@H]1O[C@@](OCc2ccc(-c3ccccc3)cc2)(C(=O)O)C[C@H](O)[C@H]1NC(=O)CO

1. 7.00
2. 6.72

----------
# TARGET OR TEST SYSTEM: Myelin-associated glycoprotein (Homo sapiens, UniProt P20916)
# EXPERIMENT: Inhibition of human MAG after 1 hr by competitive ELISA
# CONDITION PARAMETERS: in the assay text read “after 30 min” for “after 1 hr”
So I've got a bunch of compounds here, and I need their pIC50 values.
Numbers only, as −log10 of the molar value.

Look up pIC50 for the entries below, preserving their order.
1. O=C(CO)N[C@H]1[C@H]([C@H](O)[C@H](O)CNCc2ccc(-c3ccc(O)cc3)cc2)O[C@@](OCc2ccccc2)(C(=O)O)C[C@@H]1O
2. COc1ccc(O[C@@H]2O[C@H](CO[C@]3(C(=O)O)C[C@H](O)[C@@H](NC(=O)CO)[C@H]([C@H](O)[C@H](O)CNCc4ccc(-c5ccc(O)cc5)cc4)O3)[C@H](O)[C@H](O)[C@H]2O)cc1

5.03
4.43

----------
# TARGET OR TEST SYSTEM: B-cell receptor CD22 (Mus musculus) (UniProt P35329)
# Sequence (P35329 whole entry): as the sequence (P35329 whole entry) above
# EXPERIMENT: Ratio of IC50 for 9-(4'-hydroxy-4-biphenyl)acetamido-9-deoxy-Neu5Gca2-6GalOMP to IC50 for compound at mouse CD22
Decide using Ratio IC50: a value greater than or equal to 20 is criterion met, a smaller one is criterion not met.

STRUCTURE: O=C(CO)N[C@H]1[C@H]([C@H](O)[C@H](O)CNCc2ccc(-c3ccc(O)cc3)cc2)O[C@@](OCc2ccc(-c3ccccc3)cc2)(C(=O)O)C[C@@H]1O
CLASS ASSIGNMENT: criterion not met

STRUCTURE: O=C(Cc1ccc(-c2ccc(F)cc2)cc1)NC[C@@H](O)[C@@H](O)[C@@H]1O[C@@](OCc2ccccc2)(C(=O)O)C[C@H](O)[C@H]1NC(=O)CO
CLASS ASSIGNMENT: criterion not met

STRUCTURE: COc1ccc(O[C@@H]2O[C@H](CO[C@]3(C(=O)O)C[C@H](O)[C@@H](NC(=O)CO)[C@H]([C@H](O)[C@H](O)CNCc4ccc(-c5ccc(O)cc5)cc4)O3)[C@H](O)[C@H](O)[C@H]2O)cc1
CLASS ASSIGNMENT: criterion not met

STRUCTURE: O=C(Cc1ccc(-c2ccc(O)cc2)cc1)NC[C@@H](O)[C@@H](O)[C@@H]1O[C@@](OCc2ccccc2)(C(=O)O)C[C@H](O)[C@H]1NC(=O)CO
CLASS ASSIGNMENT: criterion met

Please indicate if the recorded Ratio IC50 for "O=C(CO)N[C@H]1[C@H]([C@H](O)[C@H](O)CNCc2ccc(-c3ccc(O)cc3)cc2)O[C@@](OCc2ccccc2)(C(=O)O)C[C@@H]1O" meets or exceeds 20. criterion not met

----------
# TARGET OR TEST SYSTEM: B-cell receptor CD22 (Homo sapiens)
# Sequence (P20273 whole entry): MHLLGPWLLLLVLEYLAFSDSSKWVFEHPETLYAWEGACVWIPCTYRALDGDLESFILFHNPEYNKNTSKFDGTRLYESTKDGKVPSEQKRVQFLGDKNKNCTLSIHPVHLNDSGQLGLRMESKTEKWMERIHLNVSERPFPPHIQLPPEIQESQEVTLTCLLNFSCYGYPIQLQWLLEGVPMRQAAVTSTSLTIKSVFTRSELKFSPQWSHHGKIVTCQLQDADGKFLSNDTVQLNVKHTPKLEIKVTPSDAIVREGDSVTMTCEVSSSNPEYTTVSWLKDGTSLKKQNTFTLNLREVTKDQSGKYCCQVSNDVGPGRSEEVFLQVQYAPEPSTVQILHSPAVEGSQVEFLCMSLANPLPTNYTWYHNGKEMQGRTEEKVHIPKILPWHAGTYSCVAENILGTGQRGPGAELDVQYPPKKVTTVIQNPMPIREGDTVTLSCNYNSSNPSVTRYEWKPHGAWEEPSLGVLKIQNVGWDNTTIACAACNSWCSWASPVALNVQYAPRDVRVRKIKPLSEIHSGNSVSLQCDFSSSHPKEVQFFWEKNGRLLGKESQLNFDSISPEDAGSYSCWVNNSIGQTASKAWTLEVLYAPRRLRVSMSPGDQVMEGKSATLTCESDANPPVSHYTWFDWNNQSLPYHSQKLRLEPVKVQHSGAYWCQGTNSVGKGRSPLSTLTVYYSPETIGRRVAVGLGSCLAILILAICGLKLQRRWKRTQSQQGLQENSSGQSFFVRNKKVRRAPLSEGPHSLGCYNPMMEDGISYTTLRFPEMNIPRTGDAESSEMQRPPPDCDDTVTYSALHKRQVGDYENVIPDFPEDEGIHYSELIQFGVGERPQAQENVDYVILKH
# EXPERIMENT: Antagonist activity at human CD22 after 1 hr by competitive ELISA
READOUT: pIC50
Give bare numbers, as −log10 of the molar value.

Reference set (4 entries):
STRUCTURE: O=C(Cc1ccc(-c2ccc(O)cc2)cc1)NC[C@@H](O)[C@@H](O)[C@@H]1O[C@@](OCc2ccccc2)(C(=O)O)C[C@H](O)[C@H]1NC(=O)CO
pIC50: 6.89
//
STRUCTURE: O=C(Cc1ccc(-c2ccc(O)cc2)cc1)NC[C@@H](O)[C@@H](O)[C@@H]1O[C@@](OCc2ccc(-c3ccccc3)cc2)(C(=O)O)C[C@H](O)[C@H]1NC(=O)CO
pIC50: 7.15
//
STRUCTURE: O=C(CO)N[C@H]1[C@H]([C@H](O)[C@H](O)CNCc2ccc(-c3ccc(O)cc3)cc2)O[C@@](OCc2ccccc2)(C(=O)O)C[C@@H]1O
pIC50: 6.09
//
STRUCTURE: O=C(CO)N[C@H]1[C@H]([C@H](O)[C@H](O)CNCc2ccc(-c3ccc(O)cc3)cc2)O[C@@](OCc2ccc(-c3ccccc3)cc2)(C(=O)O)C[C@@H]1O
pIC50: 5.95

// switching to the query compound
Kindly note the recorded pIC50 for "COc1ccc(O[C@@H]2O[C@H](CO[C@]3(C(=O)O)C[C@H](O)[C@@H](NC(=O)CO)[C@H]([C@H](O)[C@H](O)CNCc4ccc(-c5ccc(O)cc5)cc4)O3)[C@H](O)[C@H](O)[C@H]2O)cc1" , which is 6.28
